Sourced from patent EP0115142B1

Below: a set of entries, each annotated with reported Minimal effective doses (MED) AS (i.p.).
Test system: DBA-2 mice
test description: Audiogenic seizure (AS): reversal of clonidine protection
Format: in vivo
condition parameters: one hour before clonidine 0.4 mg/kg i.p., sound 30 minutes later, mice
Counter-ions that a name gives are not always drawn. Marks after values point to notes of the source that are not given here.

Some entries whose results are on file:
c1ccc2c(c1)OCC(C1=NCCN1)O2 (stereo not shown) [RX 781094, hydrochloride, reference compound] = 2.5 mg/kg of body weight
Fc1cccc2c1OC(C1=NCCN1)CC2 (stereo not shown) [Example 3e, 2-(2-Imidazolin-2-yl)-8-fluorochroman] = ~3* mg/kg of body weight

Fill in the blank: the reported Minimal effective doses (MED) AS (i.p.) of c1ccc2c(c1)CCC(C1=NCCN1)O2 (stereo not shown) [Example 1c, 2-(2-Imidazolin-2-yl)chroman] is ____.
5 mg/kg of body weight

Fill in the blank: the reported Minimal effective doses (MED) AS (i.p.) of Fc1cccc2c1CCC(C1=NCCN1)O2 (stereo not shown) [Example 2e, 2-(2-Imidazolin-2-yl)-5-fluorochroman] is ____.
1 mg/kg of body weight
